Measured values drawn from ChEMBL document CHEMBL4130363 for this set.

# Subject Of Test: 5-hydroxytryptamine receptor 2C (Homo sapiens)
# Sequence (whole entry): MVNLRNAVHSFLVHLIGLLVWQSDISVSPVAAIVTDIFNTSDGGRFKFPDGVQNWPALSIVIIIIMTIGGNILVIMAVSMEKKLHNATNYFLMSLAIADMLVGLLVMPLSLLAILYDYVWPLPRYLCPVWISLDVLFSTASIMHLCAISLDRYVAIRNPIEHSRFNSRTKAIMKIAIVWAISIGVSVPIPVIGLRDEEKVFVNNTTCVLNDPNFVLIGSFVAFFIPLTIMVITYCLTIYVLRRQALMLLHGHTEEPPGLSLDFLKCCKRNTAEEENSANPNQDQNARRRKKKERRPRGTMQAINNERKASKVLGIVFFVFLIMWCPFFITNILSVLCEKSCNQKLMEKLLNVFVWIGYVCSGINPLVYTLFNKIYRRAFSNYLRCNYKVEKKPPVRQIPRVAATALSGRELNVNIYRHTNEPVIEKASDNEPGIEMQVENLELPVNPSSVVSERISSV
# Test Details: Agonist activity at recombinant human 5-HT2C at 10 uM by aequorin reporter based assay relative to agonist
# Format: functional
Observable: Activity (%)

# Substance Smiles, Unit Symbol, Numeric Result
rows = [
    ("CN(CCCNC(=O)c1ccc(C(F)(F)F)cc1)Cc1ccccc1", "%", -7),
    ("CCCc1ccc(C(=O)NCCCN(C)Cc2ccccc2)cc1", "%", 63),
    ("CN(CCCNC(=O)c1ccc(Cl)cc1)Cc1ccccc1", "%", 12),
    ("CN(CCNC(=O)c1ccc(C#N)cc1)Cc1ccccc1", "%", -1),
    ("CN(CCCNC(=O)c1ccc(Br)cc1)Cc1ccccc1", "%", 11),
    ("COc1ccc(C(=O)NCCCN(C)Cc2ccccc2)cc1", "%", 5),
    ("COc1cccc(C(=O)NCCCN(C)Cc2ccccc2)c1", "%", 5),
    ("CN(CCCNC(=O)c1cccc(Br)c1)Cc1ccccc1", "%", -3),
]

A: CN(CCNC(=O)c1ccc([N+](=O)[O-])cc1)Cc1ccccc1
B: CN(CCNC(=O)c1ccc(Cl)cc1)Cc1ccccc1
Pick one, A or B : lowest reported Activity. Kindly state the label of the option you pick. A

1: CN(CCCNC(=O)c1ccc(Cl)cc1)CCc1ccccc1
2: CN(CCCNC(=O)c1ccc([N+](=O)[O-])cc1)Cc1ccccc1
Pick one, 1 or 2 : lowest reported Activity. Kindly state the label of the option you pick. 2
(2: 2%, 1: 75%)

====

# Subject Of Test: Neuropeptide Y receptor type 1 (Homo sapiens) (UniProt P25929)
# Sequence (whole entry): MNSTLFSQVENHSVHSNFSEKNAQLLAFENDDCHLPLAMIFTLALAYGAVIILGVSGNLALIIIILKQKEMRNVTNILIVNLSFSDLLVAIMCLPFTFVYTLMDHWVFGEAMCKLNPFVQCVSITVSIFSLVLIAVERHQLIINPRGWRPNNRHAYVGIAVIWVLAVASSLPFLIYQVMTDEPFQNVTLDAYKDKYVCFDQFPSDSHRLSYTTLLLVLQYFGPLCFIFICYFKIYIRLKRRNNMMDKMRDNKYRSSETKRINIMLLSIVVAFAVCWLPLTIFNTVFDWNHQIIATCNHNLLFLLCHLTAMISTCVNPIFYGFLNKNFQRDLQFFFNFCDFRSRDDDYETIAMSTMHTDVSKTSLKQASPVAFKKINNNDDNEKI
# Test Details: Antagonist activity at recombinant human NPY1R assessed as inhibition of agonist-induced cAMP levels at 10 uM by HTRF assay
# Format: functional
Observable: inhibition (%)

Use these answered entries as a reference point.
# Substance Smiles, Unit Symbol, inhibition
records = [
    ("CN(CCCNC(=O)c1ccc(Br)cc1)Cc1ccccc1", "%", -3),
    ("CN(CCCNC(=O)c1cccc(Br)c1)Cc1ccccc1", "%", -5),
    ("CN(CCCNC(=O)c1ccc(Cl)cc1)CCc1ccccc1", "%", -1),
]

a: CN(CCCNC(=O)c1ccc(Cl)cc1)Cc1ccccc1
b: CN(CCCNC(=O)c1ccc([N+](=O)[O-])cc1)Cc1ccccc1
For this pair, a and b , which shows a numerically higher inhibition? Kindly state the label of the option you pick. b
(b: 6%, a: -4%)

====

# Subject Of Test: Endothelin-1 receptor (Homo sapiens) (UniProt P25101)
# Sequence (whole entry): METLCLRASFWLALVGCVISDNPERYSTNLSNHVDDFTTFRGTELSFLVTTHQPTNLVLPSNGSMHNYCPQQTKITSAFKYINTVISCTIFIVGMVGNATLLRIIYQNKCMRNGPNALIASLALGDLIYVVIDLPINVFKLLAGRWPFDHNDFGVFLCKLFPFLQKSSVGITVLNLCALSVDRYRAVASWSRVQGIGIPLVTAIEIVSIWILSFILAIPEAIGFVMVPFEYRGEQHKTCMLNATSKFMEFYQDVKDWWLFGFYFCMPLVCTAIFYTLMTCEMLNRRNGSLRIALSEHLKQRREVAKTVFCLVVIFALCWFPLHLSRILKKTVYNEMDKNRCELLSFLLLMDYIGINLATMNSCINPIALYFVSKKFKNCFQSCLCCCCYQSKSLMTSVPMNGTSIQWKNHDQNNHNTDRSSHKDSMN
# Test Details: Antagonist activity at recombinant human ETA receptor assessed as inhibition of agonist induced effect at 10 uM by aequorin reporter based assay
# Format: functional
Observable: inhibition (%)

Use these answered entries as a reference point.
# Substance Smiles, Unit Symbol, inhibition
records = [
    ("COc1cccc(C(=O)NCCCN(C)Cc2ccccc2)c1", "%", 5),
    ("CN(CCCNC(=O)c1cccc(Br)c1)Cc1ccccc1", "%", -9),
]

P: CN(CCNC(=O)c1ccc(Cl)cc1)Cc1ccccc1
Q: CN(CCCNC(=O)c1ccc([N+](=O)[O-])cc1)Cc1ccccc1
For this pair, P and Q , which shows a numerically higher inhibition? Kindly state the label of the option you pick. Q
(Q: 0%, P: -9%)

A: COc1ccc(C(=O)NCCCN(C)Cc2ccccc2)cc1
B: CN(CCCNC(=O)c1ccc(Cl)cc1)Cc1ccccc1
C: CN(CCCNC(=O)c1ccc(C(F)(F)F)cc1)Cc1ccccc1
D: CN(CCNC(=O)c1ccc(C#N)cc1)Cc1ccccc1
List these items ordered by inhibition, big to small. Please, when replying, give the labels in the order that was requested. D, C, A, B

====

# Subject Of Test: D(1A) dopamine receptor (Homo sapiens)
# Test Details: Agonist activity at recombinant human dopamine D1 receptor assessed as induction of cAMP levels at 10 uM by HTRF assay relative to agonist
# Assay type: functional
Observable: Activity (%)

# Substance Smiles, Activity, %
data = [
    ("CN(CCNC(=O)c1ccc(C#N)cc1)Cc1ccccc1", 9),
    ("CN(CCCNC(=O)c1ccc(Cl)cc1)CCc1ccccc1", -6),
]

A: CN(CCNC(=O)c1ccc(Cl)cc1)Cc1ccccc1
B: COc1cccc(C(=O)NCCCN(C)Cc2ccccc2)c1
For this pair, A and B , which shows a numerically higher Activity? Kindly state the label of the option you pick. B

1: CCCc1ccc(C(=O)NCCCN(C)Cc2ccccc2)cc1
2: CN(CCCNC(=O)c1ccc([N+](=O)[O-])cc1)Cc1ccccc1
Pick one, 1 or 2 : lowest reported Activity. Kindly state the label of the option you pick. 1
(1: -2%, 2: -1%)

P: CN(CCCNC(=O)c1ccc(C(F)(F)F)cc1)Cc1ccccc1
Q: CN(CCNC(=O)c1ccc([N+](=O)[O-])cc1)Cc1ccccc1
R: CN(CCCNC(=O)c1ccc(Cl)cc1)Cc1ccccc1
S: COc1ccc(C(=O)NCCCN(C)Cc2ccccc2)cc1
List these items ordered by Activity, big to small. Please, when replying, give the labels in the order that was requested. Q, S, P, R
(Q: 14%, S: 4%, P: -4%, R: -7%)

====

# Subject Of Test: Vasoactive intestinal polypeptide receptor 1 (Homo sapiens) (UniProt P32241)
# Sequence (P32241 whole entry): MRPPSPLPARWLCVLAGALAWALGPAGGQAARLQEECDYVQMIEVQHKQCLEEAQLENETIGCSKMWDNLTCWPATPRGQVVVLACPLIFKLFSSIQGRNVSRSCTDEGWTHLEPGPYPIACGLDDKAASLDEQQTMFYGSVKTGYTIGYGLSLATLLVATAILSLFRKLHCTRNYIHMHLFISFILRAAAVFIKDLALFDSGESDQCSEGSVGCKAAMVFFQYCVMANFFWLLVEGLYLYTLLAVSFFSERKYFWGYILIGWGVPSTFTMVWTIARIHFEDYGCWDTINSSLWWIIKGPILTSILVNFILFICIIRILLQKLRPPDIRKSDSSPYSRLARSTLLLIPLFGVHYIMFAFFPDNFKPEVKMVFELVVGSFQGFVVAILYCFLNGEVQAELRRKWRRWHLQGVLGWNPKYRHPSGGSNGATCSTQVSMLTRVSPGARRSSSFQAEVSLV
# Test Details: Agonist activity at recombinant human VPAC1 receptor at 10 uM by aequorin reporter based assay relative to agonist
# Assay type: functional
Observable: Activity (%)

Use these answered entries as a reference point.
# Substance Smiles, Unit Symbol, Activity
records = [
    ("CN(CCCNC(=O)c1ccc(Cl)cc1)Cc1ccccc1", "%", 0),
    ("CN(CCCNC(=O)c1cccc(Br)c1)Cc1ccccc1", "%", -1),
    ("CN(CCCNC(=O)c1ccc(C(F)(F)F)cc1)Cc1ccccc1", "%", 0),
    ("CN(CCNC(=O)c1ccc(Cl)cc1)Cc1ccccc1", "%", -1),
    ("CCCc1ccc(C(=O)NCCCN(C)Cc2ccccc2)cc1", "%", -1),
]

P: COc1cccc(C(=O)NCCCN(C)Cc2ccccc2)c1
Q: CN(CCNC(=O)c1ccc(C#N)cc1)Cc1ccccc1
R: CN(CCCNC(=O)c1ccc(Cl)cc1)CCc1ccccc1
List these items ordered by Activity, big to small. Please, when replying, give the labels in the order that was requested. R, P, Q

a: CN(CCNC(=O)c1ccc([N+](=O)[O-])cc1)Cc1ccccc1
b: CN(CCCNC(=O)c1ccc([N+](=O)[O-])cc1)Cc1ccccc1
Pick one, a or b : lowest reported Activity. Kindly state the label of the option you pick. b
